# test_target: UniProt P51531
# Sequence (P51531 whole entry): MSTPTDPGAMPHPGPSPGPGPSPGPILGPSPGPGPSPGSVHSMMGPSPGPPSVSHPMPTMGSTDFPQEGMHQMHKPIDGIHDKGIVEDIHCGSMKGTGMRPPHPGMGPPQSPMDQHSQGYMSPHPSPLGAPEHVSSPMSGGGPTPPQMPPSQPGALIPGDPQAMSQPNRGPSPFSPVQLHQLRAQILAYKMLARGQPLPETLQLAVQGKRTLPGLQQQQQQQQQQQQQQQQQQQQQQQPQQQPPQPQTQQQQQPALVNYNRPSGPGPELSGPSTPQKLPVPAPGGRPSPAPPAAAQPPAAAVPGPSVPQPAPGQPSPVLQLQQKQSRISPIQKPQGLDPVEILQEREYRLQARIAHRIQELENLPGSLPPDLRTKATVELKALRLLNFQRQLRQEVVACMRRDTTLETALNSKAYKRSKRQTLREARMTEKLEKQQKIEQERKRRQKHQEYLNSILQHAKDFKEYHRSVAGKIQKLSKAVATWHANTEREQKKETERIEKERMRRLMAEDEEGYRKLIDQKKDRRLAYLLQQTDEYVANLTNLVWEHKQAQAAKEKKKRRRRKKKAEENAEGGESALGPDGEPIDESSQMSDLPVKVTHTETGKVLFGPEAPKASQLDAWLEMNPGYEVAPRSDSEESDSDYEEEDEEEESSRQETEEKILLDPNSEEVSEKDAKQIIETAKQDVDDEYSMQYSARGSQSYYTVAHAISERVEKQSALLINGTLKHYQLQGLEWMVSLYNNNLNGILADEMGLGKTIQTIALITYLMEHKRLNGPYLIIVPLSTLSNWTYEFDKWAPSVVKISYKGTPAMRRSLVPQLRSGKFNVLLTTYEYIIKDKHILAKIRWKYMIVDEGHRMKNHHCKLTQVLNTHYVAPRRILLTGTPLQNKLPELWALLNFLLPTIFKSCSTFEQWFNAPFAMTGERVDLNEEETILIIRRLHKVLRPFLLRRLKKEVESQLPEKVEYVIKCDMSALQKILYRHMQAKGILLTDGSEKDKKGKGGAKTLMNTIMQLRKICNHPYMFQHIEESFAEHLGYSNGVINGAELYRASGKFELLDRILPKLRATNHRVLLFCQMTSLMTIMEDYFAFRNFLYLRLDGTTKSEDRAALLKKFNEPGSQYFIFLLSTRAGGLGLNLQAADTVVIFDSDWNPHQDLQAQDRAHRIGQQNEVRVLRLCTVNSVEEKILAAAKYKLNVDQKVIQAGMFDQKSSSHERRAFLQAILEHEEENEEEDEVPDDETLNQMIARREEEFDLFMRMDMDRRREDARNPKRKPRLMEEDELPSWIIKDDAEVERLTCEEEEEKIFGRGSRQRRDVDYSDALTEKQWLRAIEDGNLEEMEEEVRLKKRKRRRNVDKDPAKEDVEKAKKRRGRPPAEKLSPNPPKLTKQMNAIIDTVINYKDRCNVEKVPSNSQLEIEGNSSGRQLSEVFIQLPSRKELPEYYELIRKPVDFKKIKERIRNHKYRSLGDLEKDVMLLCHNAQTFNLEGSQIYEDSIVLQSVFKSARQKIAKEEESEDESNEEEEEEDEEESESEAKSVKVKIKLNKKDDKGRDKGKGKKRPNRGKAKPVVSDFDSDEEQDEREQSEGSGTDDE
# measurement_notes: MSD SMARCA2 degradation in NCI-H1299 cell line (24 h)
# Assay type: cell-based
# Design: HC: NCI-H1299 cells treated with DMSO; host or cells: NCI-H1299
# assay_setup: NCI-H1299 cells, read-out: SMARCA2 MSD H1299 degradation 24 h: External Abs-DC50
So I've got a bunch of molecules here, and I need their DC50 values.

Q: Which value of DC50 has been reported for Cn1c(=O)n(C2CCC(=O)NC2=O)c2ccc(CNCc3cn(Cc4cccc(N5C[C@H]6C[C@@H]5CN6/C=C/C(=O)c5ccccc5O)n4)nn3)cc21 (stereo partly drawn) in the records?
Result: > 1000 nM

Q: Which value of DC50 has been reported for Cn1c(=O)n(C2CCC(=O)NC2=O)c2ccc(CCCCc3cn(Cc4cccc(N5C[C@H]6C[C@@H]5CN6/C=C/C(=O)c5ccccc5O)n4)nn3)cc21 (stereo partly drawn) in the records?
Result: > 1000 nM

Q: Which value of DC50 has been reported for Cn1c(=O)n(C2CCC(=O)NC2=O)c2ccc(CCCOCCCN3CCN(Cc4ccc(-c5cc(-c6ccccc6O)nnc5N)cc4)CC3)cc21 (stereo not drawn) in the records?
Result: < 100 nM

Q: Which value of DC50 has been reported for Cn1c(=O)n(C2CCC(=O)NC2=O)c2ccc(CCCOCCOCCN3CCN(Cc4ccc(-c5cc(-c6ccccc6O)nnc5N)cc4)CC3)cc21 (stereo not drawn) in the records?
Result: 100 to 500 nM

Q: Which value of DC50 has been reported for Cn1c(=O)n(C2CCC(=O)NC2=O)c2ccc(CCCCCCOc3cccc(CN4CCN(c5cc(-c6ccccc6O)nnc5N)CC4)c3)cc21 (stereo not drawn) in the records?
Result: > 1000 nM

Q: Which value of DC50 has been reported for Cn1c(=O)n(C2CCC(=O)NC2=O)c2cccc(CCCCCN3CCCC(n4cc(-c5cc(-c6ccccc6O)nnc5N)cn4)C3)c21 (stereo not drawn) in the records?
Result: < 100 nM
